Entries and their % Inhibition of Gli1 reporter, Co-Culture N = 1, 20 µg/ml values follow.
# targetOfAssay: full length human Shh expressed on the cell surface (human, UniProt Q15465 24-462)
# experimentalProtocol: cell-based or functional assay
Reply with a number, then the unit it belongs to.

- binder: "3H8 (antibody, V domains shown, fully human XenoMouse hybridoma antibody; also called MAb 3H8) VH: QVQLVESGGGVVQPGRSLRLSCAASGFTFSTYGMHWVRQAPGKGLEWVAVIWYDGSNKYYADSVKGRFTISRDNSKNTLNLQMNSLRAEDTAVYYCARDLYYYGSGSPFDYWGQGTLVTVSS VL: EIVMTQSPATLSVSPGERATLSCRASQSVSSNLAWYQQKPGQAPRLLIFGVSIRATGIPARFSGSGSGTEFTLTISSLQSEDFAVYYCQQYNNWPRPGFGGGTKVEIK"
  valueMeasured: "73%"

*Q* Data request, read-out % Inhibition of Gli1 reporter, Co-Culture N = 1, 20 µg/ml, for 1H12 (antibody, V domains shown, fully human XenoMouse hybridoma antibody; tested as hybridoma supernatant and as purified antibody; also called MAb 1H12) VH: QVQLVQSGAEVKKPGASVKVSCKASGYTFTGYYMHWVRQAPGQGLEWVGWFNPNSGGTNCAQKFQGRVTMTRDTSISTAYMELSRLRSDDTAVYYCAREAVESYYYGLDVWGQGTTVTVSS VL: QSVVTQPPSASGTPGQRITISCSGSSSNIGSNYVYWYHQLPGSAPNLLIYRNNQRPSGVPDRFSGSKSGTSASLAISGLRSEDEADYFCAVWDDSLRGVVFGGGTKLTVL
*A* 8%

*Q* Same for 1C8 (antibody, V domains shown, fully human XenoMouse hybridoma antibody; tested as hybridoma supernatant and as purified antibody; also called MAb 1C8) VH: EVQLVESGGGLIQPGGSLRLSCAVSGFTVSSNCMNWVRQAPGKGLEWVSVIYSGGKTAYADSVKGRFTISRDNSKNTLCLQMNSLRAEDTAVYYCARDSSMVVGLGYFDLWGRGTLVTVSS VL: SYELTQPPSVSVSPGLTASITCSGDKLGYKYASWYQQKPGQSPVLVIYQDIKRPSGIPERFSGSNSGNTATLTISGTQAMDEADYYCQAWDSSTVVFGGGTKLTVL
*A* 26%

*Q* Same for 1H10 (antibody, V domains shown, fully human XenoMouse hybridoma antibody; tested as hybridoma supernatant and as purified antibody; also called MAb 1H10) VH: QVQLVESGGGVVQPGRSLRLSCAASGFTFSSYGMHWVRQAPGKGLEWVAVIWNDGSNEYYADSVKGRFTISRDNSKNTLYLQMNSLRAEDTAVYYCARDLYYYGSGSPFDDWGQGTLVTVSS VL: EIVMTQSPGTLSVSPGERATLSCRASQSVGSNLAWYQQKPGQAPRLLIFGVSIRATGVPARFSGSGSGTEFTLTISSLQSEDFAVYYCQQYNDWPRPGFGGGTKVEIK
*A* 47%
